Here the recorded inhibition is given for each entry.
MEASURED ON: Ribosomal protein S6 kinase alpha-6 (Homo sapiens) (UniProt Q9UK32)
Sequence (Q9UK32 whole entry): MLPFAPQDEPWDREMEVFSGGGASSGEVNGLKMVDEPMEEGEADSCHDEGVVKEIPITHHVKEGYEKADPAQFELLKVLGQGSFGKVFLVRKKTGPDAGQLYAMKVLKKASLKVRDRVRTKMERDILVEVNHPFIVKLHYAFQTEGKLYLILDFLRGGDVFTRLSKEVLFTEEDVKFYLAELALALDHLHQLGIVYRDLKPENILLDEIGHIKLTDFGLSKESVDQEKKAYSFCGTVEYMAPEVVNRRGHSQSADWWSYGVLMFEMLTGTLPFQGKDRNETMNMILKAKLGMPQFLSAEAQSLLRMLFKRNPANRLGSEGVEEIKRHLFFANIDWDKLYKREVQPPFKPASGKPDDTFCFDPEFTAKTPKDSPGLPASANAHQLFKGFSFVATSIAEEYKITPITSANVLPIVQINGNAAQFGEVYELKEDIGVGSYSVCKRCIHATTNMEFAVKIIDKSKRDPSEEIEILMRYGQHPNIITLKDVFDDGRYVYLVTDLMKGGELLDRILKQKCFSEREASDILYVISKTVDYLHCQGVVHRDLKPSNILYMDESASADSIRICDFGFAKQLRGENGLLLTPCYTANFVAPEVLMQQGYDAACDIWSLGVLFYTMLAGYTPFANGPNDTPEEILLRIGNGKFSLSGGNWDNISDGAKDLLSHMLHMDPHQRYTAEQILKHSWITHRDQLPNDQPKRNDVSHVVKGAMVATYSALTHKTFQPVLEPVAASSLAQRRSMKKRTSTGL
CONDITION NOTES: at 0.1 µM;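 also: reported value is the mean inhibition of RSK4, from the GSK PKIS kinase inhibitor screen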
Response body: numeric value in %, unit text excluded.

CCS(=O)(=O)c1ccc(OC)c(Nc2ncc(-c3ccccc3Cl)o2)c1 ... 2.01

Param item: `COc1cccc(-n2cnc3c(N/N=C/c4ccncc4)ncnc32)c1` ; param system: Ribosomal protein S6 kinase alpha-6 (Homo sapiens) (UniProt Q9UK32); output inhibition: -0.06

Param item: `C[C@@H](Oc1cc(-n2cnc3ccc(OCC4CCN(C)CC4)cc32)sc1C(N)=O)c1ccccc1Cl` ; param system: Ribosomal protein S6 kinase alpha-6 (Homo sapiens) (UniProt Q9UK32); output inhibition: 8.06

Param item: `FC(F)(F)c1cccc(Nc2nccc(-c3cnn4nc(-c5ccccc5)ccc34)n2)c1` ; param system: Ribosomal protein S6 kinase alpha-6 (Homo sapiens) (UniProt Q9UK32); output inhibition: 1.3

Param item: `O=C1Nc2ccc(I)cc2C1=Cc1cc(Br)c(O)c(Br)c1` ; param system: Ribosomal protein S6 kinase alpha-6 (Homo sapiens) (UniProt Q9UK32); output inhibition: 1.37
